- Tested on: DLD-1 colon
- PROCEDURE_SUMMARY: NCI tumour cell line growth inhibition, 48 h
MEASURED_PARAMETER: TGI

{"columns": ["COMPOUND", "ASSAYED_TARGET", "MEASURED_PARAMETER", "REPORTED_MEASUREMENT"],
 "data": [
  ["Cc1ccccc1N=NC(C(=O)c1ccccc1)C(=O)c1ccccc1", "DLD-1 colon", "TGI", "> 100 µM"],
  ["Cc1cccc2nc3cccc(C(=O)NCCN(C)C)c3nc12", "DLD-1 colon", "TGI", "21.8 µM"],
  ["O=C(Nc1ccn(CCI)c(=O)n1)c1ccccc1", "DLD-1 colon", "TGI", "> 100 µM"]
]}

Query: Please provide the recorded TGI for COC(=O)c1ccc(NCc2cc(O)ccc2O)cc1 , tested on DLD-1 colon.
Reply: 40.8 µM

Query: Same lookup for COc1ccc(CCNCCCC2c3ccccc3-c3ccccc32)cc1OC , please.
Reply: 30.5 µM

Query: Same lookup for O=C(O)C1=C(C(=O)Nc2ccc(NC(=O)C3=C(C(=O)O)C4C=CC3C4)cc2)C2C=CC1C2 , please.
Reply: > 100 µM

Query: Same lookup for CCC1CN2CCC3(c4ccccc4)CC(C(=O)OC)=CC1C23 (stereo unspecified) , please.
Reply: 39 µM

Query: Same lookup for O=C1NC(=O)C2C1N(Cc1ccccc1)C(=O)N2Cc1ccccc1 (stereo unspecified) , please.
Reply: > 100 µM

Query: Same lookup for Cc1cccc(C(C)(C)C)c1NC(=O)CC1Sc2ccccc2NC1=O (stereo unspecified) , please.
Reply: > 100 µM

Query: Same lookup for COc1ccc2nc(NC(=O)C(=O)C(C#N)c3ccc(Cl)c(Cl)c3)sc2c1 (stereo unspecified) , please.
Reply: > 100 µM

Query: Same lookup for O=[N+]([O-])c1ccc(Cl)cc1C1SCc2nc3ccccc3n21 (stereo unspecified) , please.
Reply: > 100 µM
